- ASSAY TARGET: T1, Ube2N (UniProt P61088 1-152)
- T1 construct: Ube2N, ubiquitin-conjugating enzyme E2 N; also called wtUbe2N; source: E. coli Rossetta2 (DE3), purified (ion exchange, SEC)
- T1 sequence (looked up): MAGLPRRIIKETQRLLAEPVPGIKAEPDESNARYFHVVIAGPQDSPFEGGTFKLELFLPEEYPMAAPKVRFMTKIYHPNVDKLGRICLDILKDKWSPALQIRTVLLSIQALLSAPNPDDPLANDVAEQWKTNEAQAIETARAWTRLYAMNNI
- PROTOCOL: ITC; ZNRF1^CTD in the cell, Ube2N in the syringe; 25°C; Na-phosphate pH 8.0, 300 mM NaCl; single site model
- ASSAY CONTEXT: both partners purified
MEASURED METRIC: Kd
# output: numeric value plus its unit

Prompt line: I am curious: what Kd value has been reported for ZNRF1^CTD (C-terminal domain of ZNRF1, residues 139–227) (domain or fragment, UniProt Q8ND25 139-227, looked up, ZNRF1, RING E3 ubiquitin ligase, residues 139-227 of the full-length protein (ZnF and RING domains); also called ZNRF1 C-terminal domain; ZRNF1^CTD; source: E. coli Rossetta2 (DE3), purified (HisTrap, SEC)) SHSGFKCPICSKSVASDEMEMHFIMCLSKPRLSYNDDVLTKDAGECVICLEELLQGDTIARLPCLCIYHKSCIDSWFEVNRSCPEHPAD ?
Response line: 171 nM
